Would you kindly list Gl50 Growth Inhibition, MCF-7 for each of these molecules?
# System: MCF-7 (breast)
# protocol: Sulforhodamine B human cancer cell growth inhibition, MCF-7
# Assay type: cell-based
# condition notes: MCF-7 breast cell line, compounds in DMSO, 48 h
One number for each entry, in µg/mL.

[[record]]
molecule = "C=C(C)[C@@H]1CC[C@]2(COC(C)=O)CC[C@]3(C)[C@H](CC[C@@H]4[C@@]5(C)CCC(N)C(C)(C)[C@@H]5CC[C@]43C)[C@@H]12 (single isomer, unassigned) [Compound 9b, 3-α/β-Amino-28-O-acetyl-betulin]"
measured_target = "MCF-7 (breast)"
readout_kind = "Gl50 Growth Inhibition, MCF-7"
output_unit = "µg/mL"
observed_result = 0.20


Here is another molecule to look at.
Could you share which Gl50 Growth Inhibition, MCF-7 value was measured for `C=C(C)[C@@H]1CC[C@]2(/C=N/O)CC[C@]3(C)[C@H](CC[C@@H]4[C@@]5(C)CC[C@H](OC(C)=O)C(C)(C)[C@@H]5CC[C@]43C)[C@@H]12` ?
4.5

====

# Test system: BXPC-3 (pancreas)
# protocol: Sulforhodamine B human cancer cell growth inhibition, BXPC-3
# Type: cell-based
# condition notes: Homo sapiens, BXPC-3 pancreas cell line, compounds in DMSO, 48 h, read-out: Gl50 Growth Inhibition, XPC-3
readout kind: IC50 (µg/mL)
Give bare numbers, in µg/mL.

Your task in this section: give IC50 for each listed record.
1. C=C(C)[C@@H]1CC[C@]2(COC(C)=O)CC[C@]3(C)C(CCC4[C@@]5(C)CC/C(=N/O)C(C)(C)[C@@H]5CC[C@]43C)[C@@H]12 (stereo partly shown)
2. C=C(CNC(=O)[C@H](C)[C@@H](OC)C1CCCN1C(=O)C[C@@H](OC)[C@H]([C@@H](C)CC)N(C)C(=O)[C@@H](NC(=O)C(C(C)C)N(C)C)C(C)C)[C@@H]1CC[C@]2(CO)CC[C@]3(C)C(CCC4[C@@]5(C)CC[C@H](O)C(C)(C)[C@@H]5CC[C@]43C)[C@@H]12 (stereo partly drawn) [Compound 16b, 30-N-(Dap-Dil-Val-Dov)-betulin]

10.4
0.4

# lookup: IC50 of C=C(C)[C@@H]1CC[C@]2(CNC(=O)[C@H](C)[C@@H](OC)C3CCCN3C(=O)C[C@@H](OC)[C@H]([C@@H](C)CC)N(C)C(=O)C(NC(=O)[C@H](C(C)C)N(C)C)C(C)C)CC[C@]3(C)C(CCC4[C@@]5(C)CC[C@H](O)C(C)(C)C5CC[C@]43C)C12 (stereo partly shown)
0.6

====

Please provide measured IC50 for the entries that follow.
# Test system: DU-145 (prostate)
# protocol: Sulforhodamine B human cancer cell growth inhibition, DU-145
# Assay type: cell-based
# condition notes: Homo sapiens, DU-145 prostate cell line, compounds in DMSO, 48 h, read-out: Gl50 Growth Inhibition, DU-145
# Description: Cancer Cell Line Procedures. Inhibition of human cancer cell growth was assessed using the standard sulforhodamine B assay of the U.S. National Cancer Institute, as previously described.^15 To begin, cells in a 5% fetal bovine serum/RPMI1640 medium were inoculated in 96-well plates and incubated for 24 h. Next, serial dilutions of the compounds were added. After 48 h, the plates were fixed with trichloroacetic acid, stained with sulforhodamine B, and read with an automated microplate reader.
Numbers only, in µg/mL.

Worked set:
[[record]]
molecule = "C=C(C)[C@@H]1CC[C@]2(CN)CC[C@]3(C)C(CCC4[C@@]5(C)CC[C@H](OC(C)=O)C(C)(C)C5CC[C@]43C)C12 (stereo partly drawn) [Compound 3, 3-O-Acetyl-28-aminobetulin]"
readout_kind = "IC50"
observed_result = 1.8

[[record]]
molecule = "C=C(C)[C@@H]1CC[C@]2(CNC(=O)[C@H](C)[C@@H](OC)C3CCCN3C(=O)C[C@@H](OC)[C@H]([C@@H](C)CC)N(C)C(=O)C(NC(=O)[C@H](C(C)C)N(C)C)C(C)C)CC[C@]3(C)C(CCC4[C@@]5(C)CC[C@H](O)C(C)(C)C5CC[C@]43C)C12 (stereo partly drawn) [Compound 7b, Betulin-28-amino-N-(Dap-Dil-Val-Dov)]"
readout_kind = "IC50"
observed_result = 0.4

[[record]]
molecule = "C=C(CNC(=O)[C@H](C)[C@@H](OC)C1CCCN1C(=O)C[C@@H](OC)[C@H]([C@@H](C)CC)N(C)C(=O)[C@@H](NC(=O)C(C(C)C)N(C)C)C(C)C)[C@@H]1CC[C@]2(CO)CC[C@]3(C)C(CCC4[C@@]5(C)CC[C@H](O)C(C)(C)[C@@H]5CC[C@]43C)[C@@H]12 (stereo partly drawn) [Compound 16b, 30-N-(Dap-Dil-Val-Dov)-betulin]"
readout_kind = "IC50"
observed_result = 0.04


Switching to the query record.
Can you share its IC50? I mean this molecule: CC[C@H](C)C([C@@H](CC(=O)N1CCCC1[C@H](OC)[C@@H](C)C(=O)NCCN1C(=O)[C@]23CCC(C)(C)C1C2[C@H]1CCC2[C@@]4(C)CC[C@H](O)C(C)(C)C4CC[C@@]2(C)[C@]1(C)CC3)OC)N(C)C(=O)[C@@H](NC(=O)[C@H](C(C)C)N(C)C)C(C)C (stereo partly drawn) [Compound 18b]
0.06
